# Target System: PDE5A (Homo sapiens)
# Assay Method Text: Recombinant PDE isozyme IMAP FP assay
Measure Name: IC50 (µM)
API: value field is a number in µM; no unit string.

Q: Any idea what IC50 was measured for Clc1cccc(Nc2nnc(-c3ccccc3)c3ccccc23)c1 [MY5445, 1-(3-chloroanilino)-4-phenylphthalazine] ?
A: 14.3

----------
# Test system: ZR75-1 breast tumor cells
# Assay Method Text: Growth assay
# Format: cell-based
# Experimental Setup: Homo sapiens, ZR-75-1, 72 h, read-out: growth inhibition IC50
Measure Name: IC50 (µM)
Just the number in µM, nothing appended.

Q: What value of measured IC50 is listed for CSc1ccc(/C=C2/C(C)=C(CC(=O)O)c3cc(F)ccc32)cc1 [SS, sulindac sulfide] ?
A: 76
